List of Minimum inhibitory concentration, Ab A ATCC 17978 tested on Acinetobacter baumannii.
Positions of bridges follow the written chain, without caps; N, C: chain ends. Non-standard residues stand in square brackets, D forms with d. Residues, ends and D or L forms follow the SMILES beside them. *: point of attachment. X22 = CC(C)c1ccc(C(=O)*)cc1; X29 = Cc1cc(C)cc(C(=O)*)c1; Octanoyl = CCCCCCCC(=O)*; Orn = NCCC[C@H](N)C(=O)O; Dab = NCC[C@H](N)C(=O)O; Abu = CC[C@H](N)C(=O)O; Dap = NC[C@H](N)C(=O)O
Dear colleague, please return just the value in µg/mL, with no unit written.

I looked up CCCCCCCC(=O)N[C@@H](CCN)C(=O)N[C@H](C(=O)N[C@H](CO)C(=O)N[C@H]1CCNC(=O)[C@H]([C@@H](C)O)NC(=O)[C@H](CCN)NC(=O)[C@H](CCN)NC(=O)[C@H](C)NC(=O)[C@@H](CC(C)C)NC(=O)[C@H](CCN)NC1=O)[C@@H](C)O [Compound 2] (Octanoyl-[Dab]T[dS][Dab][Dab][dL]A[Dab][Dab]T; lactam 4-C) and its Minimum inhibitory concentration, Ab A ATCC 17978 for Acinetobacter baumannii was 0.5

I looked up CC[C@@H]1NC(=O)[C@@H](CC(C)C)NC(=O)[C@H](CCN)NC(=O)[C@@H](NC(=O)[C@H](CN)NC(=O)[C@@H](NC(=O)[C@H](CCN)NC(=O)c2ccc(C(C)C)cc2)[C@@H](C)O)CCNC(=O)[C@H]([C@@H](C)O)NC(=O)[C@H](CCN)NC(=O)[C@H](CCN)NC1=O [Compound 99] (X22-[Dab]T[Dap][Dab][Dab][dL][Abu][Dab][Dab]T; lactam 4-C) and its Minimum inhibitory concentration, Ab A ATCC 17978 for Acinetobacter baumannii was 0.25

I looked up CCCCCCCC(=O)N[C@@H](CCN)C(=O)N[C@H](C(=O)N[C@@H](CN)C(=O)N[C@H]1CCNC(=O)[C@H]([C@@H](C)O)NC(=O)[C@H](CCCN)NC(=O)[C@H](CCN)NC(=O)[C@H]([C@@H](C)O)NC(=O)[C@@H](CC(C)C)NC(=O)[C@H](CCN)NC1=O)[C@@H](C)O [Compound 53] (Octanoyl-[Dab]T[Dap][Dab][Dab][dL]T[Dab][Orn]T; lactam 4-C) and its Minimum inhibitory concentration, Ab A ATCC 17978 for Acinetobacter baumannii was 8

I looked up CC[C@@H]1NC(=O)[C@@H](CC(C)C)NC(=O)[C@H](CCN)NC(=O)[C@@H](NC(=O)[C@H](CN)NC(=O)[C@@H](NC(=O)[C@H](CCN)NC(=O)c2cc(C)cc(C)c2)[C@@H](C)O)CCNC(=O)[C@H]([C@@H](C)O)NC(=O)[C@H](CCN)NC(=O)[C@H](CCN)NC1=O [Compound 93] (X29-[Dab]T[Dap][Dab][Dab][dL][Abu][Dab][Dab]T; lactam 4-C) and its Minimum inhibitory concentration, Ab A ATCC 17978 for Acinetobacter baumannii was 0.5

I looked up CCCCCCCC(=O)N[C@@H](CCN)C(=O)N[C@H](C(=O)N[C@@H](CN)C(=O)N[C@H]1CCNC(=O)[C@H]([C@@H](C)O)NC(=O)[C@H](CCN)NC(=O)[C@H](CCN)NC(=O)[C@H](CC)NC(=O)[C@@H](CC(C)C)NC(=O)[C@H](CCN)NC1=O)[C@@H](C)O [Compound 46] (Octanoyl-[Dab]T[Dap][Dab][Dab][dL][Abu][Dab][Dab]T; lactam 4-C) and its Minimum inhibitory concentration, Ab A ATCC 17978 for Acinetobacter baumannii was 0.25

src = patent USRE48335E1
